Where these numbers come from: ChEMBL document CHEMBL1961873

Biological target: PAS domain-containing serine/threonine-protein kinase (Homo sapiens) (UniProt Q96RG2);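 note: reported value is the mean percent inhibition of PASK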
Sequence (Q96RG2 whole entry, the tested form may be a part): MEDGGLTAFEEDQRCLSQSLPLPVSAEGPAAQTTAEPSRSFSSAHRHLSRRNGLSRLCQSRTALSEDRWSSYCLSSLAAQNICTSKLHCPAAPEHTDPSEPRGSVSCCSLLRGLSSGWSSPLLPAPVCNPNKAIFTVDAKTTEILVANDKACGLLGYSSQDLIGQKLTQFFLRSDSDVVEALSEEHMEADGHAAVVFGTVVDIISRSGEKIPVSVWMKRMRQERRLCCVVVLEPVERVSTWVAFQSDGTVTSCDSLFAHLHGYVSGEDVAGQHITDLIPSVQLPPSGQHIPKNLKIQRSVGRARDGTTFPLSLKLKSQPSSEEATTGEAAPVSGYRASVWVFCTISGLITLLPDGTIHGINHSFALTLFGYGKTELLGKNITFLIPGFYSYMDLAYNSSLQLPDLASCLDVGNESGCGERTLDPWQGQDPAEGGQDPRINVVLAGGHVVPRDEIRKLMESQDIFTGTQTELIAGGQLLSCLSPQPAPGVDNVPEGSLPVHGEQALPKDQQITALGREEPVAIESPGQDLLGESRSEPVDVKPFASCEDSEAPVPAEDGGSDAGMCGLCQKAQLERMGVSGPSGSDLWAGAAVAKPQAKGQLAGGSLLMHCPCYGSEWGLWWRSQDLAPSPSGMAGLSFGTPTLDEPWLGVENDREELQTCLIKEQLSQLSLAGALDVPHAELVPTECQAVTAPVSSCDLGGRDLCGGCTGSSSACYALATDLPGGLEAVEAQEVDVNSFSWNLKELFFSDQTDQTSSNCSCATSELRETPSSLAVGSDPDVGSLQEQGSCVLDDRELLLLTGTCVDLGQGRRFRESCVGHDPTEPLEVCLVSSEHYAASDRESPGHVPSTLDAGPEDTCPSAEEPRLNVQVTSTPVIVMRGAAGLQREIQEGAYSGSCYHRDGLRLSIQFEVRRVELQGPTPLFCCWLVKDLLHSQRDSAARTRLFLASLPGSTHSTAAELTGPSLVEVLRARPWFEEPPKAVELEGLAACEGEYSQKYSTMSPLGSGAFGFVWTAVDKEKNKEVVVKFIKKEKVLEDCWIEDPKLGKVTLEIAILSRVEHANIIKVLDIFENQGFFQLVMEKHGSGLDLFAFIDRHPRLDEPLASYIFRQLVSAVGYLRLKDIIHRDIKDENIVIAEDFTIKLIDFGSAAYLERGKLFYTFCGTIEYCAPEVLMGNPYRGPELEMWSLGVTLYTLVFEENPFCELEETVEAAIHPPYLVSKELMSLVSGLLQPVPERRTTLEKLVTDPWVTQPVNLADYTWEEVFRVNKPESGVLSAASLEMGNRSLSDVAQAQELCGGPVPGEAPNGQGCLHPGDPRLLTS
Conditions: at 1 µM
measurementName: inhibition

Quick one: inhibition for CC1=C(C(=O)Nc2ccc3[nH]ncc3c2)C(c2ccc(Cl)c(Cl)c2)CC(=O)N1 (stereo not given) ?
-1.74%

Quick one: inhibition for `CCc1cccc(NC(=O)Nc2ccc(Oc3ccc4nc(NC(=O)OC)[nH]c4c3)cc2)c1` ?
1.44%

Quick one: inhibition for `CCn1c(-c2nonc2N)nc2c(N3CCCC3)nccc21` ?
-1.38%

Quick one: inhibition for `Cc1cccc(-c2n[nH]cc2-c2ccc3ncccc3n2)n1` ?
1.18%

Quick one: inhibition for `Cc1ccc(NC(=O)c2ccnc(N3CCCC3)c2)cc1-c1ccc(C(=O)NCC2CC2)cc1` ?
-1.71%

----------
Target: Death-associated protein kinase 1 (Homo sapiens);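 note: each value is a mean inhibition figure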
Conditions: at 1 µM
Parameter inhibition: see the listing below.
I only need the number, in %, no unit after it.

Examples with their reported inhibition follow.
# smilesNotation, measurementName, readoutUnit, val
measured = [
    ("COc1cc2ncn(-c3cc(OCc4ccccc4C(F)(F)F)c(C(N)=O)s3)c2cc1OC", "inhibition", "%", -4.22),
    ("Cc1ccc(C(=O)NC2CCCCC2)cc1-c1ccc(C(=O)NCC2CC2)cc1", "inhibition", "%", 5.32),
    ("COc1cc(C=NNc2ncnc3c2cnn3-c2ccccc2)ccc1O", "inhibition", "%", -5.67),
    ("CCCN1CCC=C(c2ccc(Nc3nc(Nc4ccccc4C(N)=O)c4cc[nH]c4n3)c(C)c2)C1", "inhibition", "%", 6.22),
    ("[O-][S+]1CCN(Cc2ccc(-c3ccc4ncnc(Nc5ccc(OCc6ccccc6)c(F)c5)c4c3)o2)CC1", "inhibition", "%", 3.11),
]

Quick one: inhibition for `CCn1c(-c2nonc2N)nc2cnc(Oc3cccc(NC(=O)c4ccc(OCCN5CCOCC5)cc4)c3)cc21` ?
-1.31

Quick one: inhibition for `Cc1ccc(NC(=O)c2ccnc(N3CCCC3)c2)cc1-c1ccc(C(=O)NCC2CC2)cc1` ?
5.74

Quick one: inhibition for `CS(=O)(=O)CCN(CC#N)Cc1ccc(-c2ccc3ncnc(Nc4ccc(OCc5cccc(F)c5)c(Cl)c4)c3c2)o1` ?
-1.52

Quick one: inhibition for `Nc1nc(-c2ccccn2)c(-c2ccc3ncccc3n2)s1` ?
3.99

----------
Parameter inhibition: see the listing below.
Target: Protein kinase C iota type (Homo sapiens)
Details: at 0.1 µM
Description: GSK_PKIS: PKC-iota mean inhibition at 0.1 uM [Nanosyn]
I only need the number, in %, no unit after it.

Examples with their reported inhibition follow.
# compound, readoutUnit, inhibition
rows = [
    ("COC(=O)Nc1nc2cc(Oc3ccc(NC(=O)Nc4cccc(C(=O)O)c4)cc3)ccc2[nH]1", "%", 0.47),
    ("CS(=O)(=O)CCN(CC#N)Cc1ccc(-c2ccc3ncnc(Nc4ccc(OCc5cccc(F)c5)c(Cl)c4)c3c2)o1", "%", 1.19),
    ("NCc1ccc(-c2nc(-c3ccc(Cl)c(O)c3)c(-c3ccncc3)[nH]2)cc1", "%", -0.2),
    ("NS(=O)(=O)c1cccc(-c2ccc3c(NC(=O)C4CC4)n[nH]c3c2)c1", "%", 0.3),
    ("COC(=O)Nc1nc2cc(Oc3cccc(NC(=O)Nc4cc(C(F)(F)F)ccc4F)c3)ccc2[nH]1", "%", -0.71),
]

Quick one: inhibition for `COc1ccc(-c2coc3ncnc(N)c23)cc1` ?
1.44

Quick one: inhibition for `N#Cc1c(NC(=O)c2cccc3ccccc23)sc2c1CCCC2` ?
1.98

Quick one: inhibition for `CC(=O)Nc1cccc(C#Cc2cncnc2Nc2ccc(OCc3cccc(F)c3)c(Cl)c2)n1` ?
0.57

Quick one: inhibition for `Nc1nc(-c2ccc3c(c2)C(=Cc2cc(Br)c(O)c(Br)c2)C(=O)N3)cs1` ?
0.79

Quick one: inhibition for `O=C1NC(=O)C(c2ccccc2Cl)=C1Nc1cccc(O)c1` ?
1.73

Quick one: inhibition for `NC(=O)c1cccc(Nc2nccc(Nc3cccc4[nH]ncc34)n2)c1` ?
-0.89

Quick one: inhibition for `CN1CCC(C(=O)Nc2n[nH]c3nnc(-c4ccccc4)cc23)CC1` ?
2.28

Quick one: inhibition for `CCCN1CCC(Oc2cc(Nc3nc(Nc4cccc(F)c4C(N)=O)c4cc[nH]c4n3)c(OC)cc2Cl)CC1` ?
1.04

Quick one: inhibition for `COc1ccc(COc2ccc(Cc3cnc(N)nc3N)cc2OC)cc1` ?
0.94

Quick one: inhibition for `COc1cc2ncn(-c3cc(O[C@H](C)c4ccccc4Cl)c(C(N)=O)s3)c2cc1OC` ?
2.97

Quick one: inhibition for `c1cnn2ncc(-c3ccnc(Nc4ccc5c(c4)OCCO5)n3)c2c1` ?
2.88

Quick one: inhibition for `COc1cc2ncn(-c3cc(OCc4ccccc4C(F)(F)F)c(C(N)=O)s3)c2cc1OC` ?
3.36

Quick one: inhibition for `Nc1ncnc2occ(-c3ccc(NC(=O)Nc4cccc(C(F)(F)F)c4)cc3)c12` ?
3.47

Quick one: inhibition for `CS(=O)(=O)CCNCc1nc(-c2ccc3ncnc(Nc4ccc(F)c(Cl)c4)c3c2)cs1` ?
-0.92

----------
Molecular target: Ribosomal protein S6 kinase alpha-1 (Homo sapiens) (UniProt Q15418);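 note: values are mean percent inhibition of RSK1 measured in the GSK PKIS kinase inhibitor set screen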
Sequence (Q15418 whole entry): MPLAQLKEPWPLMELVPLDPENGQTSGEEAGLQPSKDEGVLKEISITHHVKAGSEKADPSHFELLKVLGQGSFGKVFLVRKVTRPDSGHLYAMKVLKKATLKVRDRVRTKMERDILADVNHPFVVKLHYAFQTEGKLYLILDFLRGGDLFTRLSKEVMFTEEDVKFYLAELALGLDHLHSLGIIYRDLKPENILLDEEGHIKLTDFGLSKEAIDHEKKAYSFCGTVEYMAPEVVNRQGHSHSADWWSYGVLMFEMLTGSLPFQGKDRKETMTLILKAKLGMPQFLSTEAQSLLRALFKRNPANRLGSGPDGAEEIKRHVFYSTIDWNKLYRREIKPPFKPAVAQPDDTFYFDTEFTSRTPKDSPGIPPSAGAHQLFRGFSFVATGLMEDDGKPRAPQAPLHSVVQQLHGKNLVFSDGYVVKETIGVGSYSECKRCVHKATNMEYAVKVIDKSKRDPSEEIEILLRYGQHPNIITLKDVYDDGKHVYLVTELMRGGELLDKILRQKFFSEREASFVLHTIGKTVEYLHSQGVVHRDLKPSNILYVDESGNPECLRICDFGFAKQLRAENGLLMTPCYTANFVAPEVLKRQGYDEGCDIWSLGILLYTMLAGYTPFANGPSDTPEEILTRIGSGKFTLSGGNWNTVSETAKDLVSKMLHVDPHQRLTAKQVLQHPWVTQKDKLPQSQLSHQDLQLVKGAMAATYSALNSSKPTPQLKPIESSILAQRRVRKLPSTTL
Settings: at 0.1 µM
measurementName: inhibition (%)
I only need the number, in %, no unit after it.

# smilesNotation, inhibition / %
rows = [
    ("CC(=O)Nc1cccc(C#Cc2cncnc2Nc2ccc(OCc3cccc(F)c3)c(Cl)c2)n1", 3.35),
    ("COc1ccc(-c2coc3ncnc(N)c23)cc1", 1.72),
    ("COc1ccccc1Nc1ncc(-c2ccccc2)o1", 0.8),
    ("CCn1c(-c2nonc2N)nc2cncc(C(=O)N3CCNCC3)c21", 1.84),
    ("CN(C)c1cc2c(Nc3ccc4nc(Cc5ccccc5)[nH]c4c3)ncnc2cn1", 2.97),
]

We now examine a further compound.
Give Ribosomal protein S6 kinase alpha-1 (Homo sapiens) (UniProt Q15418) inhibition for `NCc1ccc(-c2nc(-c3ccc(Cl)c(O)c3)c(-c3ccncc3)[nH]2)cc1`
-0.63

----------
Target: Serine/threonine-protein kinase Sgk2 (Homo sapiens) (UniProt Q9HBY8)
Sequence (Q9HBY8 whole entry): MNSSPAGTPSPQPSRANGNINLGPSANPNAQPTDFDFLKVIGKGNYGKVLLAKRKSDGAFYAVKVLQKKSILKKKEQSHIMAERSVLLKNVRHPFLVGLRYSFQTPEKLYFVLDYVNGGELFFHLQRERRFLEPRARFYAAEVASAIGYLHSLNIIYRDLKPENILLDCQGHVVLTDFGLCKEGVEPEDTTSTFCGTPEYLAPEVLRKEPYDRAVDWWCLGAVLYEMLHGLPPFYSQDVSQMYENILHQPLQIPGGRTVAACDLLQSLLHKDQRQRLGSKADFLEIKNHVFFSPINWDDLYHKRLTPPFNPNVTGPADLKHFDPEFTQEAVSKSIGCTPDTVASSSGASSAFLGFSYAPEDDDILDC
Settings: at 1 µM
Description: GSK_PKIS: SGK2 mean inhibition at 1 uM [Nanosyn]
measurementName: inhibition (%)
I only need the number, in %, no unit after it.

Examples with their reported inhibition follow.
# molecule, readoutUnit, inhibition
rows = [
    ("CC1=C(C(=O)Nc2ccc3[nH]ncc3c2)C(c2ccc(F)cc2)NC(=O)N1 (stereo not given)", "%", 4.13),
    ("COc1cccc(-n2ncc3c(N/N=C/c4cccc(F)c4)ncnc32)c1", "%", 0.6),
    ("Nc1nc(-c2ccc3c(c2)C(=Cc2cc(Br)c(O)c(Br)c2)C(=O)N3)cs1", "%", 2.1),
    ("NC(=O)c1cccc(Nc2nccc(Nc3cccc4[nH]ncc34)n2)c1", "%", -0.81),
]

We now examine a further molecule.
Quick one: inhibition for `Cn1cc(C=C2C(=O)Nc3cccnc32)c2ccccc21` ?
1.75

----------
Target: Serine/threonine-protein kinase PAK 3 (Homo sapiens) (UniProt O75914);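 note: mean percent inhibition of PAK3, measured in a screen of the GSK published kinase inhibitor set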
Sequence (O75914 whole entry, looked up): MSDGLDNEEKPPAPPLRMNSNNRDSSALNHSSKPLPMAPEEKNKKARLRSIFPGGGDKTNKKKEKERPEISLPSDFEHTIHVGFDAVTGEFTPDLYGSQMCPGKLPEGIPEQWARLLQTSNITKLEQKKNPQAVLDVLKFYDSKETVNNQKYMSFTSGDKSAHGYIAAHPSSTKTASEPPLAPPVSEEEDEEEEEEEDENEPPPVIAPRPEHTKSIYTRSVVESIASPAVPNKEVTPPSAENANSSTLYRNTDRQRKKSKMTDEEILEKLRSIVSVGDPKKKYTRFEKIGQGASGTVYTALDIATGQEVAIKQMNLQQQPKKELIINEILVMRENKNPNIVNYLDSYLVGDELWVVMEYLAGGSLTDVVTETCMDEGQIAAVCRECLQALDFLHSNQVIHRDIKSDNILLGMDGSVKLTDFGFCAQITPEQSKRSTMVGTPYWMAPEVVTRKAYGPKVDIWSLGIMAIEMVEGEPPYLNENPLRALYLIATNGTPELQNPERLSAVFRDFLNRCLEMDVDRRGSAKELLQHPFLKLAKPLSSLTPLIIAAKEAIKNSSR
Conditions: at 0.1 µM
measurementName: inhibition (%)
I only need the number, in %, no unit after it.

# molecule, inhibition, %
data = [
    ("CN(C)c1cc2c(Nc3ccc4nc(Cc5ccccc5)[nH]c4c3)ncnc2cn1", 6.44),
]

Give Serine/threonine-protein kinase PAK 3 (Homo sapiens) (UniProt O75914) inhibition for `NC(=O)c1cccc(Nc2nccc(Nc3cccc4[nH]ncc34)n2)c1`
-3.68

Give Serine/threonine-protein kinase PAK 3 (Homo sapiens) (UniProt O75914) inhibition for `N#Cc1c(NC(=O)c2cccc3ccccc23)sc2c1CCCC2`
2.52

----------
Target: Serine/threonine-protein kinase PAK 5 (Homo sapiens);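 note: values are mean percent inhibition of PAK5 from a kinase inhibitor set screen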
Conditions: at 0.1 µM
Parameter inhibition: see the listing below.
I only need the number, in %, no unit after it.

Examples with their reported inhibition follow.
# compound, val
data = [
    ("O=C(Nc1n[nH]c2nc(-c3ccco3)c(Br)cc12)C1CC1", -1.27),
    ("[O-][S+]1CCN(Cc2ccc(-c3ccc4ncnc(Nc5ccc(OCc6ccccc6)c(F)c5)c4c3)o2)CC1", -1.94),
    ("COc1cc2ncn(-c3cc(OCc4ccccc4Cl)c(C(N)=O)s3)c2cc1OC", -3.38),
    ("Cn1cc(C=C2C(=O)Nc3cccnc32)c2ccccc21", -6.57),
]

Quick one: inhibition for `Cc1cccc(-c2n[nH]cc2-c2ccc3ncccc3n2)n1` ?
-7.66

Quick one: inhibition for `CCc1cccc(NC(=O)Nc2ccc(Oc3ccc4nc(NC(=O)OC)[nH]c4c3)cc2)c1` ?
8.59

----------
Target: Ephrin type-B receptor 3 (Homo sapiens);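 note: values are mean percent inhibition of EPHB3 from the GSK PKIS screening panel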
Sequence (whole entry): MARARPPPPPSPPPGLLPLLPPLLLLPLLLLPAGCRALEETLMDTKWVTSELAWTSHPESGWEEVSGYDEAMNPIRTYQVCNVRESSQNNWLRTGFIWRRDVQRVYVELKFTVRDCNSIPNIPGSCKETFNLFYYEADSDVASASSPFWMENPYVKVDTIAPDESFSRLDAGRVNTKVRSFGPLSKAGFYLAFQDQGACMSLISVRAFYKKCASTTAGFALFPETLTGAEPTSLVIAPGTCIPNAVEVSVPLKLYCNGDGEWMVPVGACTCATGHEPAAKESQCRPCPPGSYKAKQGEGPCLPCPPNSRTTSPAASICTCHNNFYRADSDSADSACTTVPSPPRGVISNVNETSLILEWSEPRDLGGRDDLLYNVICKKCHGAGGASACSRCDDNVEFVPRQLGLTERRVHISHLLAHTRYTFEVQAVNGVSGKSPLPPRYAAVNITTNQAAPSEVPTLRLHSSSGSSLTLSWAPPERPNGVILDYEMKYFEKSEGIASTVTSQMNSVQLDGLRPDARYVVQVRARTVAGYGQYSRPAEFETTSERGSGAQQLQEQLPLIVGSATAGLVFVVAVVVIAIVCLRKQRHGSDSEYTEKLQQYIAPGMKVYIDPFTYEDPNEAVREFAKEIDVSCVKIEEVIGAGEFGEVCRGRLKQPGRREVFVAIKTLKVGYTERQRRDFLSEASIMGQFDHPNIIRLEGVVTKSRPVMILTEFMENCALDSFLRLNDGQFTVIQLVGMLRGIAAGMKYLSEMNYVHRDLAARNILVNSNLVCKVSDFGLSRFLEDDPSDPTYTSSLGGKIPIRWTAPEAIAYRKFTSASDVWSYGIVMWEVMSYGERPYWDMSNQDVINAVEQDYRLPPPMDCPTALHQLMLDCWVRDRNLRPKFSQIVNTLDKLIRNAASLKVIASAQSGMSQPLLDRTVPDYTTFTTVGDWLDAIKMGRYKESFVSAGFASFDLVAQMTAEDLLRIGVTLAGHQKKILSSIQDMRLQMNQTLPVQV
Conditions: at 1 µM
measurementName: inhibition (%)
I only need the number, in %, no unit after it.

# compound, inhibition (%)
rows = [
    ("CCCN1CCC=C(c2ccc(Nc3nc(Nc4ccccc4C(N)=O)c4cc[nH]c4n3)c(C)c2)C1", 2.4),
    ("COc1ccc(-c2ccncc2)cc1C(N)=O", 3.63),
    ("COC(=O)Nc1nc2cc(Oc3ccc(NC(=O)Nc4cccc(C(=O)O)c4)cc3)ccc2[nH]1", -3.97),
    ("CC(C)=Cc1cccc2c1/C(=N/Nc1ccc(S(N)(=O)=O)cc1)C(=O)N2", -0.21),
    ("CC1=C(C(=O)Nc2ccc3[nH]ncc3c2)C(c2ccc(Cl)c(Cl)c2)CC(=O)N1 (stereo not given)", 2.88),
]

Quick one: inhibition for `[O-][S+]1CCN(Cc2ccc(-c3ccc4ncnc(Nc5ccc(OCc6ccccc6)c(F)c5)c4c3)o2)CC1` ?
1.61

Quick one: inhibition for `CCn1c(-c2nonc2N)nc2ccncc21` ?
-1.68

Quick one: inhibition for `Cc1ccc(C(=O)NC2CCCCC2)cc1-c1ccc(C(=O)NCC2CC2)cc1` ?
1.76

Quick one: inhibition for `Nc1nc(-c2ccccn2)c(-c2ccc3ncccc3n2)s1` ?
3.23

Quick one: inhibition for `Cc1nnc(-c2ccc(C)c(-c3ccc(C(=O)Nc4cccc(C#N)c4)cc3)c2)o1` ?
4.32
